Target: T1, histidine-tagged human SORT1 (R&D Systems) (human, UniProt Q99523 78-755)
T1 construct: Bought recombinant protein; also called His-tagged human SORT1; not shown: histidine tag
T1 sequence: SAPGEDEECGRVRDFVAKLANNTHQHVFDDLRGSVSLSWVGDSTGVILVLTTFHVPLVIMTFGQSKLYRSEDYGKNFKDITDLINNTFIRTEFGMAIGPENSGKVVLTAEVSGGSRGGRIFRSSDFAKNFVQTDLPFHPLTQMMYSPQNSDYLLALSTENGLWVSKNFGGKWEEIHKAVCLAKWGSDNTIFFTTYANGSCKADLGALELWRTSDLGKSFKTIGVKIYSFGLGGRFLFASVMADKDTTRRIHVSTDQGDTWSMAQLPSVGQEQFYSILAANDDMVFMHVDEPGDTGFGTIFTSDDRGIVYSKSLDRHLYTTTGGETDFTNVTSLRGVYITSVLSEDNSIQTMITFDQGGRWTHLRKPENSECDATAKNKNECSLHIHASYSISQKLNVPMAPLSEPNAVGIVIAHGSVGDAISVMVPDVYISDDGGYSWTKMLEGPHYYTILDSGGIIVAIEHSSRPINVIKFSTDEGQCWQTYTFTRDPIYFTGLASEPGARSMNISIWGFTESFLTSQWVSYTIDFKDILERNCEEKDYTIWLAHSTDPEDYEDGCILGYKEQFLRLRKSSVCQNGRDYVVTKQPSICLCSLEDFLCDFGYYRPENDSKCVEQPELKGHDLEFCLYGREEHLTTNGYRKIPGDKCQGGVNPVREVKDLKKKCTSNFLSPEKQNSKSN
Assay: BLI (Octet RED96), antibody captured on anti-human IgG Fc sensor, 20 nM His-tagged human SORT1, 1:1 fit
parameter measured: Kd (nM)
Provide the reading as a plain figure in nM.

Input line: Item S-60-15.6 [N33H] (antibody, human IgG1, kappa, L234A L235A, V domains shown, huIgG1 LALAPS) VH: QVQLQESGPGLVKPSETLSLTCAVSGYSISSGYYWGWIRQPPGKGLEWIGTIYHSGSTYYNPSLKSRVTISVDTSKNQFSLKLSSVTAADTAVYYCARQGSIKQGYYGMDVWGQGTTVTVSS VL: DIVMTQSPLSLPVTPGEPASISCRSSQSLLRSHGYNYLDWYLQKPGQSPQLLIYLGSNRASGVPDRFSGSGSGTDFTLKISRAEAEDVGVYYCMQQQEAPLTFGGGTKVEIKR has what recorded Kd?
Output line: 0.823

Input line: Item S-60-15.16 [N33M] (antibody, human IgG1, kappa, L234A L235A, V domains shown, huIgG1 LALAPS) VH: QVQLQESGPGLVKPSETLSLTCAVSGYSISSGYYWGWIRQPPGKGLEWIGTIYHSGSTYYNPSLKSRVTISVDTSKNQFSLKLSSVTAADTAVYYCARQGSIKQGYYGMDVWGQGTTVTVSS VL: DIVMTQSPLSLPVTPGEPASISCRSSQSLLRSMGYNYLDWYLQKPGQSPQLLIYLGSNRASGVPDRFSGSGSGTDFTLKISRAEAEDVGVYYCMQQQEAPLTFGGGTKVEIKR has what recorded Kd?
Output line: 0.85
